# Test system: 922993-354-T-J3-PDC complex spheroids, viability, % test/control;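 further: spheroids exposed to the agents for 7 days before readout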
# assay method text: Anticancer human tumor 922993-354-T-J3-PDC patient-derived endometrial carcinoma cell line growth inhibition [CLK]
# condition set: curve of first compound; second compound 3.16 µM
Quick reference: IC50 of the listed items.

# count of solved cases: 2
1) Nc1ccn(C2OC(CO)C(O)C2(F)F)c(=O)n1 (stereo not drawn) + CNC(=O)c1ccc(Nc2nc(OC3CCCC3)c3c(-c4ccc5nc(C)oc5c4)c[nH]c3n2)c(OC)c1    < 31.6 nM
2) Nc1ccn(C2OC(CO)C(O)C2(F)F)c(=O)n1 (stereo not drawn) + CN1CCN(c2cc(C(=O)Nc3cc4cc(-c5cnn(C)c5)ccc4cn3)ccn2)CC1    < 31.6 nM

Query compound follows.
Challenge: // IC50 lookup, key: C=C(F)C(=O)N1CCN(c2nc(OCC3CCCN3C)nc3c2CCN(c2cccc4cccc(Cl)c24)C3)CC1CC#N (stereo not drawn) + CN1CCN(c2cc(C(=O)Nc3cc4cc(-c5cnn(C)c5)ccc4cn3)ccn2)CC1
Response given: < 31.6 nM
